Recorded IC50 for the following compounds
# Tested on: TGF-β-stimulated SMAD3 phosphorylation in BEAS-2B cells
# test protocol: Cellular ALK5 potency assay, inhibition of TGF-β stimulated pSMAD3 formation in BEAS-2B cells
# Assay type: cell-based
# conditions: Homo sapiens, inhibition of TGF-β (10 ng/mL) stimulated pSMAD3 formation, 1 hour compound incubation, read-out: BEAS2B pIC50 (converted)

Worked cases, IC50 given:
>  <compound>
CN1CCC(N(C)c2cnc3ccc(-c4c[nH]nc4-c4cc(Cl)ccc4F)nc3c2)C1 (racemic) [Compound 1-79]

>  <IC50>
≤ 20 nM

$$$$
>  <compound>
Fc1ccc(Cl)cc1-c1n[nH]cc1-c1ccc2ncc(-c3nnc4n3CCN4)cc2n1 [Compound 1-110]

>  <IC50>
200 to 1260 nM

$$$$
>  <compound>
Fc1ccc(Cl)cc1-c1n[nH]cc1-c1ccc2ncc(N3CCn4nc(C5=CCNC5)nc4C3)cc2n1 [Compound 1-85]

>  <IC50>
25.1 to 158 nM

$$$$

GET /value?item= Fc1ccccc1-c1n[nH]cc1-c1ccc2ncc(-c3cccnc3)cc2n1 [Compound 11-4] &field=IC50 returns 25.1 to 158 nM

###

# Test system: TGF-β-stimulated SMAD3 phosphorylation in BEAS-2B cells
# test protocol: Cellular ALK5 potency assay, inhibition of TGF-β stimulated pSMAD3 formation in BEAS-2B cells
# Format: cell-based
# conditions: Homo sapiens, inhibition of TGF-β (10 ng/mL) stimulated pSMAD3 formation, 1 hour compound incubation, read-out: BEAS2B pIC50 (converted)
property label: IC50

Worked cases, IC50 given:
>  <molecule>
CN(C)C1CC=C(c2cnc3ccc(-c4c[nH]nc4-c4cc(Cl)ccc4F)nc3c2)CC1 (centres unmarked)

>  <property label>
IC50

>  <recorded result>
≤ 20 nM

$$$$
>  <molecule>
CN1CCN(C2CCN(c3cnc4ccc(-c5c(-c6cc(Cl)ccc6F)nc6ccccn56)nc4c3)CC2)CC1

>  <property label>
IC50

>  <recorded result>
200 to 1260 nM

$$$$

GET /value?item= "CNCCn1cc(-c2cnc3ccc(-c4nc[nH]c4-c4cc(Cl)c(F)cc4F)nc3c2)cn1" &field=IC50 returns 25.1 to 158 nM

GET /value?item= Fc1ccc(Cl)cc1-c1n[nH]cc1-c1ccc2ncc(N3CC4CNCC43)cc2n1 (centres unmarked) &field=IC50 returns 25.1 to 158 nM

GET /value?item= Fc1ccc(Cl)cc1-c1n[nH]cc1-c1ccc2ncc(NCC3CCCCN3)cc2n1 (centres unmarked) &field=IC50 returns 25.1 to 158 nM

GET /value?item= "COCc1cccc(-c2n[nH]cc2-c2ccc3ncc(-c4cnn([C@H]5CCCC[C@H]5N)c4)cc3n2)c1" &field=IC50 returns 25.1 to 158 nM

GET /value?item= "Fc1ccc(Cl)cc1-c1n[nH]cc1-c1ccc2ncc(N3CCn4nc(N5CCN(Cc6ccccc6)CC5)cc4C3)cc2n1" &field=IC50 returns 25.1 to 158 nM

GET /value?item= "Fc1ccc(-c2[nH]cnc2-c2ccc3ncc(NCCN4CCNCC4)cc3n2)cc1F" &field=IC50 returns 200 to 1260 nM

###

# assayed target: recombinant human ALK5 (TGF-βR1) protein (Homo sapiens)
# Sequence (P36897 34-503): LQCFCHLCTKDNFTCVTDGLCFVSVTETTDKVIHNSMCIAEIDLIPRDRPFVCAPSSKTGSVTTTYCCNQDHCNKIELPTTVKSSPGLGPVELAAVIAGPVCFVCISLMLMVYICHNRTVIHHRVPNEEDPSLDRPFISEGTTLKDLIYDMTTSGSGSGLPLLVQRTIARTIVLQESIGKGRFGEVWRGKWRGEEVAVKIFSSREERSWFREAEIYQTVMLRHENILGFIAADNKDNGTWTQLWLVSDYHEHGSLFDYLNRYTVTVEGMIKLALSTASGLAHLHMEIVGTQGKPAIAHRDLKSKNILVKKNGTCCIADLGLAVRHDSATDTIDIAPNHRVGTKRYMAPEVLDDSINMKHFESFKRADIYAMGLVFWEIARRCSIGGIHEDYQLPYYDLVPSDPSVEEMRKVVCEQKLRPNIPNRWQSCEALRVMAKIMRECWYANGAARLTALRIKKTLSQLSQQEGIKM
# test protocol: Biochemical ALK5 (TGF-βR1) assay to measure pKi (LANCE Ultra ULight kinase assay)
# conditions: apparent pKi, converted from pIC50 using the Cheng-Prusoff equation
pKi: −log10 of the molar value.
property label: pKi

>  <molecule>
CC(C)N1CCN(CCNc2cnc3ccc(-c4c[nH]nc4-c4cc(Cl)ccc4F)nc3c2)CC1

>  <pKi>
9.50 to 10.40

$$$$
>  <molecule>
Fc1cc(F)c(-c2n[nH]cc2-c2ccc3ncc(NCC4CN5CCN4CC5)cc3n2)cc1Cl (stereo not shown)

>  <pKi>
9.50 to 10.40

$$$$
>  <molecule>
CC(C)N1CCN(CCNc2cnc3ccc(-c4nn[nH]c4-c4cc(Cl)ccc4F)cc3c2)CC1

>  <pKi>
8.50 to 9.40

$$$$
>  <molecule>
Fc1cc(F)c(-c2[nH]cnc2-c2ccc3ncc(NCCN4CCNCC4)cc3c2)cc1Cl

>  <pKi>
9.50 to 10.40

$$$$
>  <molecule>
Fc1cc(F)c(-c2n[nH]cc2-c2ccc3ncc(NC[C@@H]4CCCCN4)cc3n2)cc1Cl

>  <pKi>
8.50 to 9.40

$$$$
>  <molecule>
CC(C)NCCN1CCN(c2cnc3ccc(-c4c[nH]nc4-c4cc(Cl)c(F)cc4F)nc3c2)CC1

>  <pKi>
9.50 to 10.40

$$$$
>  <molecule>
CNCCn1cc(-c2cnc3ccc(-c4nn[nH]c4-c4cc(Cl)ccc4F)cc3c2)cn1

>  <pKi>
≥ 10.50

$$$$
>  <molecule>
CC(C)N1CCN(c2cnc3ccc(-c4c[nH]nc4-c4ccc(F)c(F)c4)nc3c2)CC1

>  <pKi>
8.50 to 9.40

$$$$

GET /value?item= "Fc1ccc(Cl)cc1-c1n[nH]cc1-c1ccc2ncc(-c3nnc4n3CCN4)cc2n1" &field=pKi returns 9.50 to 10.40

GET /value?item= CN(C)C1CCN(c2cnc3ccc(-c4c(-c5cc(Cl)ccc5F)nc5ccccn45)cc3c2)C1 (racemic) &field=pKi returns 9.50 to 10.40

GET /value?item= "CNCCn1cc(-c2cnc3ccc(-c4nc[nH]c4-c4ccc(F)c(F)c4)nc3c2)cn1" &field=pKi returns ≥ 10.50

GET /value?item= "NC1CCN(c2cnc3ccc(-c4c[nH]nc4-c4cc(Cl)ccc4F)nc3c2)CC1" &field=pKi returns 9.50 to 10.40

GET /value?item= "NCCN1CCN(c2cnc3ccc(-c4c[nH]nc4-c4cc(Cl)ccc4F)nc3c2)CC1" &field=pKi returns 9.50 to 10.40

###

# assayed target: recombinant human ALK5 (TGF-βR1) protein (Homo sapiens)
# test protocol: Biochemical ALK5 (TGF-βR1) assay to measure pKi (LANCE Ultra ULight kinase assay)
# conditions: apparent pKi, converted from pIC50 using the Cheng-Prusoff equation
property label: Ki

Worked cases, Ki given:
>  <compound>
Fc1ccc(Cl)cc1-c1[nH]cnc1-c1ccc2ncc(-c3cn4c(n3)CNCC4)cc2c1

>  <Ki>
0.0398 to 0.316 nM

$$$$
>  <compound>
Fc1cc(F)c(-c2n[nH]cc2-c2ccc3ncc(-c4cc5n(n4)CCNC5)cc3n2)cc1Cl

>  <Ki>
0.0398 to 0.316 nM

$$$$
>  <compound>
Fc1ccc(Cl)cc1-c1[nH]cnc1-c1ccc2ncc(-c3cn[nH]c3)cc2n1

>  <Ki>
0.0398 to 0.316 nM

$$$$
>  <compound>
Fc1cc(F)c(-c2n[nH]cc2-c2ccc3ncc(-c4nnc5n4CCN5)cc3n2)cc1Cl

>  <Ki>
0.398 to 3.16 nM

$$$$
>  <compound>
O=Cc1cnc2ccc(-c3c[nH]nc3-c3cc(Cl)ccc3F)nc2c1

>  <Ki>
0.398 to 3.16 nM

$$$$

GET /value?item= "Fc1ccc(-c2[nH]cnc2-c2ccc3ncc(NCCN4CCNCC4)cc3n2)cc1F" &field=Ki returns 0.398 to 3.16 nM

GET /value?item= CC(C)N1CCCN(c2cnc3ccc(-c4c[nH]nc4-c4cc(Cl)ccc4F)nc3c2)CC1C (racemic) &field=Ki returns 0.398 to 3.16 nM

GET /value?item= "NCCn1cc(-c2cnc3ccc(-c4nc[nH]c4-c4cc(Cl)c(F)cc4F)cc3c2)cn1" &field=Ki returns 0.0398 to 0.316 nM

GET /value?item= "CC(C)N1CCN(CCNc2cnc3ccc(-c4c[nH]nc4-c4ccc(F)cc4F)nc3c2)CC1" &field=Ki returns 3.98 to 31.6 nM

GET /value?item= "Fc1ccc(Cl)cc1-c1n[nH]cc1-c1ccc2ncc(-c3nc(C(F)(F)F)n4c3CNCC4)cc2n1" &field=Ki returns 0.398 to 3.16 nM

GET /value?item= COC(=O)CC1CN(c2cnc3ccc(-c4nc[nH]c4-c4cccc(Cl)c4)nc3c2)CCN1 (stereo not shown) &field=Ki returns 0.398 to 3.16 nM

GET /value?item= "CN1CC=C(c2cnc3ccc(-c4c[nH]nc4-c4cc(Cl)c(F)cc4F)nc3c2)C1" &field=Ki returns 0.0398 to 0.316 nM
